These measurements were taken from patent US20250145711A1.

# Target or test system: T1, TRCW5 antigen (CD3δε-Fc-Avi) (biotinylated (site not stated))
# T1 construct: also called recombinant CD3
# T1 sequence (chain, as listed by the source mutant limits assumed): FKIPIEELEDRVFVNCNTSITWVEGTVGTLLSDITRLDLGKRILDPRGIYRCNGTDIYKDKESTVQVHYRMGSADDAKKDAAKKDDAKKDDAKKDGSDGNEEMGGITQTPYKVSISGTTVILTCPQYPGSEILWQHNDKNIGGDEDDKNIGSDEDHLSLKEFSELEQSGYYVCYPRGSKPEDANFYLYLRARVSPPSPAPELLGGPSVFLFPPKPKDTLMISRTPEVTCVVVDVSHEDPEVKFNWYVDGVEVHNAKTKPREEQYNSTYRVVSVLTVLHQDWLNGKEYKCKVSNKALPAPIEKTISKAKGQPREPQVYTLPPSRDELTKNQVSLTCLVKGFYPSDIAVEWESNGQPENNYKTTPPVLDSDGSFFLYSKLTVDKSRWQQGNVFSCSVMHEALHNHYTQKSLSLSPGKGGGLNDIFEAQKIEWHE
# Procedure text: ELISA after heat
Catalogue of binders with associated % Retained 55° C.
Write it as a number; the unit % goes unstated.

{"Binder": "CD3B2089 (scFv) scFv: QVQLVQSGAEVKKPGSSVKVSCKASGYTFTRSTMHWVRQAPGQGLEWMGYINPSSAYTNYAQKFQGRVTLTADKSTSTAYMELSSLRSEDTAVYYCASPQVHYDYNGFPYWGQGTLVTVSSGGSEGKSSGSGSESKSTGGSEIVLTQSPATLSASPGERVTLSCSASSSVSYMNWYQQKPGQAPRRWIYDSSKLASGVPARFSGSGSGRDYTLTISSLEPEDFAVYYCQQWSRNPPTFGGGTKVEIK", "% Retained 55° C. (%)": 111}
{"Binder": "CD3B2032 (scFv) scFv: QVQLVQSGAEVKKPGSSVKVSCKASGYTFTRSTMHWVKQAPGQGLEWMGYINPSSAYTNYNQKFQGRVTLTADKSTSTAYMELSSLRSEDTAVYYCASPQVHYDYNGFPYWGQGTLVTVSSGGSEGKSSGSGSESKSTGGSEIVLTQSPATLSASPGERVTLSCSASSSVSYMNWYQQKPGTSPRRLIYDSSKLASGVPARFSGSGSGRDYTLTISSLEPEDFAVYYCQQWSRNPPTFGGGTKVEIK", "% Retained 55° C. (%)": 106}

Kindly consider the entry below.
Incoming: Using known records, supply % Retained 55° C. for CD3B2072 (scFv) scFv: QVQLVQSGAEVKKPGSSVKVSCKASGYTFTRSTMHWVRQAPGQGLEWMGYINPSSAYTNYNQKFQGRVTLTADKSTSTAYMELSSLRSEDTAVYYCASPQVHYDYNGFPYWGQGTLVTVSSGGSEGKSSGSGSESKSTGGSEIVLTQSPATLSASPGERVTLSCSASSSVSYMNWYQQKPGQSPRRWIYDSSKLASGVPARFSGSGSGRDYTLTISSLEPEDFAVYYCQQWSRNPPTFGGGTKVEIK
Outgoing: 117
